Entries annotated with measured solubility
assay: physchem; conditions: 22 °C, water, thermodynamic from solid, Solubility in H2O

COMPOUND: c1cncc([C@@H]2CCCCN2)c1 [Anabasine]
solubility: < 190 µg/mL

# input So what does the record say about solubility for C=C1CC[C@H](O)C/C1=C/C=C1\CCC[C@]2(C)[C@@H]([C@H](C)CCCC(C)C)CC[C@@H]12 [Vitamin D3] ?
# output < 190 µg/mL

# input Queued: C/C(=C\CNc1ncnc2[nH]cnc12)CO [Zeatin]
# output < 190 µg/mL

---

experiment: Rapid solubility test of pure reference compounds in 7 solvents; settings: water, 22 °C, thermodynamic from solid, Solubility in H2O, solvent water; room temperature (21–23 °C)
Entries annotated with measured solubility

SMI: C[C@@H]1O[C@@H](OC[C@H]2O[C@@H](Oc3c(-c4ccc(O)c(O)c4)oc4cc(O)cc(O)c4c3=O)[C@H](O)[C@@H](O)[C@@H]2O)[C@H](O)[C@H](O)[C@H]1O
solubility: < 190 µg/mL

# input So what does the record say about solubility for `C=C[C@](C)(O)CC[C@@H]1[C@@]2(C)CCCC(C)(C)[C@@H]2CC[C@@]1(C)O` ?
# output < 190 µg/mL

# input Queued: `CC(C)=CCC/C(C)=C/CC/C(C)=C/CO`
# output < 190 µg/mL

---

Entries annotated with measured solubility
assay: Rapid solubility test of pure reference compounds in 7 solvents; details: hexane (C6H14), 22 °C, organic solvent or mixture, thermodynamic from solid, Solubility in C6H14, solvent hexane (C6H14); room temperature (21–23 °C); 2 mg compound, solvent added until dissolution or 10.0 mL

COMPOUND: O=C(O)c1cccnc1
ENDPOINT_RESULT: < 190 µg/mL
--
COMPOUND: C[C@@H]1O[C@@H](OC[C@H]2O[C@@H](Oc3c(-c4ccc(O)c(O)c4)oc4cc(O)cc(O)c4c3=O)[C@H](O)[C@@H](O)[C@@H]2O)[C@H](O)[C@H](O)[C@H]1O
ENDPOINT_RESULT: < 190 µg/mL

Moving on to another compound below.
# input So what does the record say about solubility for NC(=O)c1cccnc1 [Nicotinamide] ?
# output < 190 µg/mL
